The measurements presented in this section are drawn from the supplement of paper PMC10567573.

B1: C2CD2L (parent)
chain: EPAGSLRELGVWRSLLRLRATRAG

- Variants of: B1
- assayProcedure: protein stability index of a GFP-peptide fusion (GPS, HEK-293T) (PSI 1-6); higher = more stable;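 further: lentivirally expressed fusions sorted by FACS into six bins by GFP to DsRed ratio, PSI derived from sequencing read proportions per bin multiplied by bin number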
- testContext: c terminus: a fixed tail appended
experimentalEndpoint: protein stability index

> print(dat)
   mutantname     experimentalendpoint  measurednumber
1        R19L  protein stability index            2.95
2        T21L  protein stability index            2.12
3         R7L  protein stability index            2.44
4        A20D  protein stability index            3.34
5        R22K  protein stability index            2.66
6         R7I  protein stability index            1.64
7        S14R  protein stability index            1.91
8         G4C  protein stability index            2.04
9        S14W  protein stability index             2.5
